Below, each entry is listed alongside its reported melting point.
Reply numerically in °C, unit not repeated.

Would you please look over these solved cases?
- Molecule: "Cc1cc(-c2sc(N3CCOCC3)nc2CNC(=O)c2cc(C)on2)cc(C)n1"
  Unit Label: "°C"
  melting point: 197
- Molecule: "Cc1cc(-c2sc(N3CC(C)OC(C(F)(F)F)C3)nc2CNC(=O)CC2CC2)cc(C)n1 (racemic) [Compound 205]"
  Unit Label: "°C"
  melting point: 148
- Molecule: "CC(C)C(=O)NCc1nc(N2C[C@@H](C)O[C@@H](C)C2)sc1-c1ccnc(C(F)(F)F)c1"
  Unit Label: "°C"
  melting point: 216

Incoming: Quick one: melting point for Cc1ccc(-c2sc(N3C[C@@H](C)O[C@@H](C)C3)nc2CNC(=O)c2ccc(Cl)cc2)cn1 ?
Outgoing: 208
